target: norepinephrine transporter (NET) (Homo sapiens); construct: expressed in transfected cells; host or cells: HEK-293; test: Norepinephrine reuptake inhibition, [3H]-NE, HEK-293 cells transfected with NE transporter cDNA; type: cell-based; conditions: compound 1 μM; [3H]-NE; relative to control without compound = 100%; lower value = more inhibition
test readout: Triple reuptake inhibition (Ratio %) NET

Reference set, count: 3
COc1ccc(-c2ccc(S(=O)(=O)NCCCN3CCC(Cc4ccccc4)CC3)cc2)cc1 : 44.79
CCCCOc1ccc(S(=O)(=O)N2CCC(c3c[nH]c4ccccc34)CC2)cc1 : 94.03
Cc1ccc(-c2ccc(S(=O)(=O)NCCCN3CCC(Cc4ccccc4)CC3)cc2)cc1 : 44.79

a: O=S(=O)(NCCN1CCC(c2ccccc2)CC1)c1ccc2ccccc2n1
b: CCCCOc1ccc(S(=O)(=O)NCCN2CCC(c3c[nH]c4ccc(OC)cc34)CC2)cc1
c: CCCCOc1ccc(S(=O)(=O)NCCCN2CCC(Cc3cccc(Cl)c3)CC2)cc1
d: O=S(=O)(NCCCN1CCC(Cc2ccccc2)CC1)c1ccc(Oc2ccccc2)cc1
e: O=S(=O)(NCCCCN1CCC(CCCc2ccccc2)CC1)c1ccc(-c2ccccc2)cc1
Q: Which order do these items take when sorted by rising Triple reuptake inhibition (Ratio %) NET? List them. Thanks in advance for listing the labels in the requested order.
Ans: d, c, e, a, b
(d: 11.04%, c: 18.93%, e: 30.25%, a: 45.04%, b: 79.30%)

* * *

biological target: serotonin transporter (SERT) (Homo sapiens, UniProt P31645); construct: expressed in transfected cells; host or cells: HEK-293; experiment: Serotonin reuptake inhibition, [3H]-5-HT, HEK-293 cells transfected with 5-HT transporter cDNA; format: cell-based; settings: compound 1 μM; [3H]-5-HT; relative to control without compound = 100%; lower value = more inhibition
Sequence (P31645 whole entry, species assumed): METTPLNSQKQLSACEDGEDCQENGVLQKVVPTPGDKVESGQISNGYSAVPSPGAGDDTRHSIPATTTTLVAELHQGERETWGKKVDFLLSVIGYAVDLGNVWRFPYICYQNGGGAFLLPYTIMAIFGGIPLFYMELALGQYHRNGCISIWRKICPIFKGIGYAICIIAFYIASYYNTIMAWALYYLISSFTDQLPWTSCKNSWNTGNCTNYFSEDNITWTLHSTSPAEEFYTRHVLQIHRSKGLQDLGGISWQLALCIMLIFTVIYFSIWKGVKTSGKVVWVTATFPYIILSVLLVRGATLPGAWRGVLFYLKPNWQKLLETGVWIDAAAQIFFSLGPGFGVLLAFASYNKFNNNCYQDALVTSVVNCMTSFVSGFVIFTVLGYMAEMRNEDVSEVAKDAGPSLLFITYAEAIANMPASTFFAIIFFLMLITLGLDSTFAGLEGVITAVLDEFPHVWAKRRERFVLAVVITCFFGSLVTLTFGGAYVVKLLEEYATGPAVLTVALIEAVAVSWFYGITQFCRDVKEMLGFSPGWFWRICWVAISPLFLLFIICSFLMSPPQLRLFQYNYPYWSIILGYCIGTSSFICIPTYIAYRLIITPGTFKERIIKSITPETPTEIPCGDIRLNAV
test readout: Triple reuptake inhibition (Ratio %) SERT

Reference set, count: 3
CCCCOc1ccc(S(=O)(=O)NCCCN2CCC(Cc3ccccc3)CC2)nc1 [Example 35] : 53.08
O=S(=O)(NCCN1CCC(Cc2ccccc2)CC1)c1ccc(Oc2ccccc2)cc1 [Example 3] : 62.10
O=S(=O)(NCCN1CCC(c2ccccc2)CC1)c1ccc2ccccc2n1 [Example 45] : 56.73

1: O=S(=O)(NCCCN1CCN(CCCc2ccccc2)CC1)c1ccc(-c2ccccc2)cc1 [Example 76]
2: CCCCOc1ccc(S(=O)(=O)NCCCN2CCC(Cc3ccc(OC)cc3)CC2)cc1 [Example 30]
Q: Param metric = Triple reuptake inhibition (Ratio %) SERT; output whichever of 1 , 2 has the minimum value. State the label of the item chosen.
Ans: 2

* * *

biological target: norepinephrine transporter (NET) (Homo sapiens, UniProt P23975); construct: expressed in transfected cells; host or cells: HEK-293; assay: Norepinephrine reuptake inhibition, [3H]-NE, HEK-293 cells transfected with NE transporter cDNA; format: cell-based; conditions: compound 1 μM; [3H]-NE; relative to control without compound = 100%; lower value = more inhibition
Sequence (P23975 whole entry, species assumed): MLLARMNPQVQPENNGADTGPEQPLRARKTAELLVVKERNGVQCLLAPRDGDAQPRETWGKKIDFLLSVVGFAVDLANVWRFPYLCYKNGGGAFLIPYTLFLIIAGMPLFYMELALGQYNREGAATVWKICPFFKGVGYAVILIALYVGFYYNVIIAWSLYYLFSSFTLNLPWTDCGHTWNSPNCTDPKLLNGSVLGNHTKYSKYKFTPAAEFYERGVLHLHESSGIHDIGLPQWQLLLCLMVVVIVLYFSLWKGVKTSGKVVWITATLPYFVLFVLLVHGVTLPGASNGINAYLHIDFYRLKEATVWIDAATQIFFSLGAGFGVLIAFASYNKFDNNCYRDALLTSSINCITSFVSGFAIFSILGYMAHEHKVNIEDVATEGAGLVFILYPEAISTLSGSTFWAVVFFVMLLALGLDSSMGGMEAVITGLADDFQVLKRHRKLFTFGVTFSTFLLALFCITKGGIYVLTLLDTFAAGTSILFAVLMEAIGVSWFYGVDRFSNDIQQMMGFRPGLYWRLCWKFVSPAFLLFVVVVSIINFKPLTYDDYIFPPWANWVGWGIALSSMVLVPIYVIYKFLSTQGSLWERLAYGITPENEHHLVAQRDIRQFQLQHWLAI
test readout: Triple reuptake inhibition (Ratio %) NET

Reference set, count: 3
O=S(=O)(NCCN1CCC(Cc2ccccc2)CC1)c1cccc2ccccc12 : 18.46
CCCCOc1ccc(S(=O)(=O)NCCCN2CCC(c3c[nH]c4ccccc34)CC2)cc1 : 73.79
O=S(=O)(NCCN1CCC(Cc2ccccc2)CC1)c1ccc2ccccc2c1 : 21.54

P: CCCCOc1ccc(S(=O)(=O)NCCCN2CCC(Cc3ccccc3)CC2)cc1
Q: O=S(=O)(NCCN1CCN(c2ccc(Cl)cc2)CC1)c1cccc2ccccc12
Q: For this pair, P and Q , which shows a numerically higher Triple reuptake inhibition (Ratio %) NET? State the label of the item chosen.
Ans: Q
